# Lookup of reported IC50 keyed by entry
- target-under-test: ULK1 kinase (Homo sapiens, UniProt O75385, E37A/K38A)
- Construct: (residues 1-283; ID NO: 1)
- Sequence (O75385 1-283 E37A/K38A): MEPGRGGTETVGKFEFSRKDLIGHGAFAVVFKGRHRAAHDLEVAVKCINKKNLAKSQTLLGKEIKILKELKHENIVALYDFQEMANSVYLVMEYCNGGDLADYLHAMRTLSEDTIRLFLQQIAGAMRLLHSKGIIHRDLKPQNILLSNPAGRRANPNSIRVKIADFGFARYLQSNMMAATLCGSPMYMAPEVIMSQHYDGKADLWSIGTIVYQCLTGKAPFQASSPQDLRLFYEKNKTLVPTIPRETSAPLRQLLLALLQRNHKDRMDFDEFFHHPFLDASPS
- assay-info: Biochemical assay for ULK1 (coupled pyruvate kinase/lactate dehydrogenase assay)
- protocol-conditions: 1 mM ATP, 0.1 nM ULK1; read-out: ULK1 (inhibition of biochemical activity), IC50
reported-property: IC50

{"smi": "CC/C(Nc1ccccn1)=C1/C(=O)Nc2ccc(C(=O)NCC(F)(F)F)cc21", "target-under-test": "ULK1 kinase (Homo sapiens, UniProt O75385, E37A/K38A)", "endpoint-result": "10 to 100 nM"}
{"smi": "CC/C(Nc1cnn(C2CCN(C(C)C)CC2)c1)=C1/C(=O)Nc2ccc(C(=O)NC[C@@H](C)OC)cc21", "target-under-test": "ULK1 kinase (Homo sapiens, UniProt O75385, E37A/K38A)", "endpoint-result": "10 to 100 nM"}
{"smi": "CC/C(Nc1cnn(C2CCN(C(C)C)CC2)c1)=C1/C(=O)Nc2ccc(C(=O)NCC3CCCC3)cc21", "target-under-test": "ULK1 kinase (Homo sapiens, UniProt O75385, E37A/K38A)", "endpoint-result": "≤ 10 nM"}
{"smi": "CC/C(Nc1cnn(C2CN(C3CCC3)C2)c1)=C1/C(=O)Nc2ccc(C(=O)NC[C@H]3CCCO3)cc21", "target-under-test": "ULK1 kinase (Homo sapiens, UniProt O75385, E37A/K38A)", "endpoint-result": "≤ 10 nM"}
{"smi": "CC/C(Nc1cnn(C2CCN(CC(C)C)CC2)c1)=C1/C(=O)Nc2ccc(C(=O)NCC(C)C)cc21", "target-under-test": "ULK1 kinase (Homo sapiens, UniProt O75385, E37A/K38A)", "endpoint-result": "≤ 10 nM"}
{"smi": "CC/C(Nc1cnn(C2CCN(C(C)C)CC2)c1)=C1/C(=O)Nc2ccc(C(=O)N(C)OC)cc21", "target-under-test": "ULK1 kinase (Homo sapiens, UniProt O75385, E37A/K38A)", "endpoint-result": "100 to 500 nM"}
{"smi": "CC/C(Nc1cnn(C(C)C)c1)=C1/C(=O)Nc2ncc(C(=O)NCC3(F)CC3)cc21", "target-under-test": "ULK1 kinase (Homo sapiens, UniProt O75385, E37A/K38A)", "endpoint-result": "10 to 100 nM"}

###

- Tested on: ULK kinase substrate ATG13 (pS318-ATG13) in MiaPaCa-2 cells
- assay-info: pATG13 levels of mutant KRas MiaPaCa-2 cells after treatment with ULK inhibitors in combination with trametinib (ELISA)
- Format: cell-based, human
pIC50: −log10 of the molar value.

{"compound": "CC/C(Nc1cnn(C2CCN(C(C)C)CC2)c1)=C1/C(=O)Nc2ccc(C(=O)NCC3CC(F)(F)C3)cc21 [Example 30]", "target-under-test": "ULK kinase substrate ATG13 (pS318-ATG13) in MiaPaCa-2 cells", "pIC50": "≥ 7.00"}
{"compound": "CC/C(Nc1cnn(C2CCN(C(C)C)CC2)c1)=C1/C(=O)Nc2ccc(C(=O)NCC3CC3)cc21 [Example 42]", "target-under-test": "ULK kinase substrate ATG13 (pS318-ATG13) in MiaPaCa-2 cells", "pIC50": "≥ 7.00"}
{"compound": "CC/C(Nc1cnn(C2CCN(C(C)C)CC2)c1)=C1/C(=O)Nc2ccc(C(=O)NCC(F)(F)F)cc21 [Example 8]", "target-under-test": "ULK kinase substrate ATG13 (pS318-ATG13) in MiaPaCa-2 cells", "pIC50": "≥ 7.00"}
{"compound": "CC/C(Nc1cnn(C2CCC2)c1)=C1/C(=O)Nc2ccc(C(=O)NCC(F)(F)F)cc21 [Example 117]", "target-under-test": "ULK kinase substrate ATG13 (pS318-ATG13) in MiaPaCa-2 cells", "pIC50": "≥ 7.00"}
{"compound": "CC/C(Nc1cnn(C2CCOCC2)c1)=C1/C(=O)Nc2ccc(C(=O)NCC(C)(C)F)cc21 [Example 173]", "target-under-test": "ULK kinase substrate ATG13 (pS318-ATG13) in MiaPaCa-2 cells", "pIC50": "≥ 7.00"}
{"compound": "CC/C(Nc1cnn(C2CCN(C(C)C)CC2)c1)=C1/C(=O)Nc2ccc(C(=O)NC[C@H]3CC(F)(F)CO3)cc21 [Example 80]", "target-under-test": "ULK kinase substrate ATG13 (pS318-ATG13) in MiaPaCa-2 cells", "pIC50": "≥ 7.00"}
{"compound": "CC/C(Nc1cnn(C(C)C)c1)=C1/C(=O)Nc2ccc(C(=O)NCC(C)C)cc21 [Example 130]", "target-under-test": "ULK kinase substrate ATG13 (pS318-ATG13) in MiaPaCa-2 cells", "pIC50": "≥ 7.00"}
{"compound": "CC/C(Nc1cccc(N2CCN(C(C)C)CC2)c1)=C1/C(=O)Nc2ccc(C(=O)NC[C@H]3CCCO3)cc21 [Example 46]", "target-under-test": "ULK kinase substrate ATG13 (pS318-ATG13) in MiaPaCa-2 cells", "pIC50": "≥ 7.00"}
{"compound": "CC/C(Nc1cnn(C(C)C)c1)=C1/C(=O)Nc2ccc(C(=O)NCCOC)cc21 [Example 126]", "target-under-test": "ULK kinase substrate ATG13 (pS318-ATG13) in MiaPaCa-2 cells", "pIC50": "6.52 to 7.00"}
{"compound": "CC/C(Nc1cnn(C(C)C)c1)=C1/C(=O)Nc2ccc(C(=O)NCC(C)(C)F)cc21 [Example 135]", "target-under-test": "ULK kinase substrate ATG13 (pS318-ATG13) in MiaPaCa-2 cells", "pIC50": "≥ 7.00"}
{"compound": "CC/C(Nc1cnn(C2COC2)c1)=C1/C(=O)Nc2ccc(C(=O)NCC(F)(F)F)cc21 [Example 118]", "target-under-test": "ULK kinase substrate ATG13 (pS318-ATG13) in MiaPaCa-2 cells", "pIC50": "≥ 7.00"}
{"compound": "CC/C(Nc1cnn(C2CCN(C(C)C)CC2)c1)=C1/C(=O)Nc2ccc(C(=O)NCCC#N)cc21 [Example 26]", "target-under-test": "ULK kinase substrate ATG13 (pS318-ATG13) in MiaPaCa-2 cells", "pIC50": "≥ 7.00"}
{"compound": "C/C(Nc1cnn(C(C)C)c1)=C1/C(=O)Nc2ccc(C(=O)NCC(F)(F)F)cc21 [Example 101]", "target-under-test": "ULK kinase substrate ATG13 (pS318-ATG13) in MiaPaCa-2 cells", "pIC50": "≥ 7.00"}
{"compound": "CC/C(Nc1cnn(C2CN(C)C2)c1)=C1/C(=O)Nc2ccc(C(=O)NCC(C)C)cc21 [Example 87]", "target-under-test": "ULK kinase substrate ATG13 (pS318-ATG13) in MiaPaCa-2 cells", "pIC50": "≥ 7.00"}
{"compound": "CC/C(Nc1cnn(C(C)C)c1)=C1/C(=O)Nc2ccc(C(=O)NCC3(C)CCOC3)cc21 (stereo not drawn) [Example 168]", "target-under-test": "ULK kinase substrate ATG13 (pS318-ATG13) in MiaPaCa-2 cells", "pIC50": "6.52 to 7.00"}
{"compound": "CC/C(Nc1cnn(C2CN(C)C2)c1)=C1/C(=O)Nc2ccc(C(=O)NCCOC)cc21 [Example 89]", "target-under-test": "ULK kinase substrate ATG13 (pS318-ATG13) in MiaPaCa-2 cells", "pIC50": "6.52 to 7.00"}
{"compound": "CC/C(Nc1cnn(C2CCN(C(C)C)CC2)c1)=C1/C(=O)Nc2ccc(C(=O)N(C)CC(F)(F)F)cc21 [Example 7]", "target-under-test": "ULK kinase substrate ATG13 (pS318-ATG13) in MiaPaCa-2 cells", "pIC50": "≥ 7.00"}
{"compound": "CC/C(Nc1cnn(C2CCN(C(C)C)CC2)c1)=C1/C(=O)Nc2ccc(C(=O)NCC3CCCC3)cc21 [Example 44]", "target-under-test": "ULK kinase substrate ATG13 (pS318-ATG13) in MiaPaCa-2 cells", "pIC50": "≥ 7.00"}
{"compound": "CC/C(Nc1cnn(C2CCN(CC3CCC3)CC2)c1)=C1/C(=O)Nc2ccc(C(=O)NCC(C)C)cc21 [Example 40]", "target-under-test": "ULK kinase substrate ATG13 (pS318-ATG13) in MiaPaCa-2 cells", "pIC50": "≥ 7.00"}
{"compound": "CC/C(Nc1cnn(C2CCN(C(C)C)CC2)c1)=C1/C(=O)Nc2ccc(C(=O)NCCOC(F)(F)F)cc21 [Example 82]", "target-under-test": "ULK kinase substrate ATG13 (pS318-ATG13) in MiaPaCa-2 cells", "pIC50": "≥ 7.00"}
{"compound": "CC/C(Nc1cnn(C2CCN(C(C)C)CC2)c1)=C1/C(=O)Nc2ccc(C(=O)NCC3CCO3)cc21 (stereo not drawn) [Example 21]", "target-under-test": "ULK kinase substrate ATG13 (pS318-ATG13) in MiaPaCa-2 cells", "pIC50": "≥ 7.00"}
{"compound": "CC/C(Nc1cnn(CCOC)c1)=C1/C(=O)Nc2ccc(C(=O)NCC(F)(F)F)cc21 [Example 102]", "target-under-test": "ULK kinase substrate ATG13 (pS318-ATG13) in MiaPaCa-2 cells", "pIC50": "≥ 7.00"}
{"compound": "CC/C(Nc1cnn([C@H]2CCOC2)c1)=C1/C(=O)Nc2ccc(C(=O)NCC(F)(F)F)cc21 [Example 104]", "target-under-test": "ULK kinase substrate ATG13 (pS318-ATG13) in MiaPaCa-2 cells", "pIC50": "≥ 7.00"}
{"compound": "CC/C(Nc1ccc(N2CCN(C(C)C)CC2)cc1)=C1/C(=O)Nc2ccc(C(=O)NC[C@H]3CCCO3)cc21 [Example 47]", "target-under-test": "ULK kinase substrate ATG13 (pS318-ATG13) in MiaPaCa-2 cells", "pIC50": "≥ 7.00"}
{"compound": "CC/C(Nc1ccc2nn(C(C)C)cc2c1)=C1/C(=O)Nc2ccc(C(=O)NCC(F)(F)F)cc21 [Example 142]", "target-under-test": "ULK kinase substrate ATG13 (pS318-ATG13) in MiaPaCa-2 cells", "pIC50": "6.52 to 7.00"}
{"compound": "CC/C(Nc1cnn(C2CC(F)(F)C2)c1)=C1/C(=O)Nc2ccc(C(=O)NCC(F)(F)F)cc21 [Example 144]", "target-under-test": "ULK kinase substrate ATG13 (pS318-ATG13) in MiaPaCa-2 cells", "pIC50": "≥ 7.00"}
{"compound": "CC/C(Nc1ccccn1)=C1/C(=O)Nc2ccc(C(=O)NCC(F)(F)F)cc21 [Example 145]", "target-under-test": "ULK kinase substrate ATG13 (pS318-ATG13) in MiaPaCa-2 cells", "pIC50": "6.52 to 7.00"}
{"compound": "CC/C(Nc1cnn(C2CCN(C(C)C)CC2)c1)=C1/C(=O)Nc2ccc(C(=O)N(C)CCOC)cc21 [Example 9]", "target-under-test": "ULK kinase substrate ATG13 (pS318-ATG13) in MiaPaCa-2 cells", "pIC50": "6.52 to 7.00"}
{"compound": "CC/C(Nc1cnn(C(C)C)c1)=C1/C(=O)Nc2ccc(C(=O)NCCC(F)(F)F)cc21 [Example 166]", "target-under-test": "ULK kinase substrate ATG13 (pS318-ATG13) in MiaPaCa-2 cells", "pIC50": "≥ 7.00"}
{"compound": "CC/C(Nc1cnn(C2CCN(C(C)C)CC2)c1)=C1/C(=O)Nc2ccc(C(=O)NCC3CCC3)cc21 [Example 43]", "target-under-test": "ULK kinase substrate ATG13 (pS318-ATG13) in MiaPaCa-2 cells", "pIC50": "≥ 7.00"}

Data credit: patent US20240150368A1
